Origin of values: patent US20100173835A1

For each of the compounds below, state its Ki.
target: human MC4 receptor (Homo sapiens, UniProt P32245); construct: expressed in transfected cells; test: Assay (V) Melanocortin Receptor 4 (MC4) binding assay; conditions: Assay (V) MC4 [Ki] (nM), 125NDP-α-MSH binding, BHK cell membranes
Sequence (P32245 whole entry): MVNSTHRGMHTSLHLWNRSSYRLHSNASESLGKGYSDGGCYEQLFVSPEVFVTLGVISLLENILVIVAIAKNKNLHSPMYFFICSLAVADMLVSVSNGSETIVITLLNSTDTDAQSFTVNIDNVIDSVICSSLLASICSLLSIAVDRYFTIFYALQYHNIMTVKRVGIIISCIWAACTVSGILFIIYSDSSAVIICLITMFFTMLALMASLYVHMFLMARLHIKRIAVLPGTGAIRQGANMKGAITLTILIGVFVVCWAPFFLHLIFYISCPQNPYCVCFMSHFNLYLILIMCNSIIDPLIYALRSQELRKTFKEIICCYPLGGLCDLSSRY
*1 amine or outer side, *2 acyl side, *3 side chain or, on linkers, in order; H or OH if unused. Where a SMILES comes first, the peptide text is derived from it. Bridges are numbered along the chain shown (N, C = ends). [ ]: non-standard residue; d: D form. The star is where a group is joined. Palmitoyl(16-(5-tetrazolyl)) = O=C(CCCCCCCCCCCCCCCc1nnn[nH]1)*; Lys(CH2CO2H)2 = N[C@@H](CCCCN(CC(=O)O)CC(=O)O)C(=O)O; X1 = O=C(O)CN(CC(=O)O)C[C@H](N[*:1])C(=O)[*:2]; Hyp = O=C(O)[C@@H]1C[C@@H](O)CN1; NTA = O=C(O)CN(CC(=O)O)CC(=O)*; Nle = CCCC[C@H](N)C(=O)O; Dap = NC[C@H](N)C(=O)O; AEEA = NCCOCCOCC(=O)O
Dear colleague, please return just the value in nM, with no unit written.

Q: Kindly state the measured Ki obtained for CCCC[C@H](NC(=O)[C@H](CNC(=O)CN(CC(=O)O)CC(=O)O)NC(=O)[C@H](CO)NC(=O)[C@H](CCC(N)=O)NC(=O)[C@H](CO)NC(=O)CNC(=O)COCCOCCNC(=O)CCCCCCCCCCCCCCCc1nnn[nH]1)C(=O)N[C@H]1CCC(=O)NCCCC[C@@H](C(N)=O)NC(=O)[C@H](Cc2c[nH]c3ccccc23)NC(=O)[C@H](CCCNC(=N)N)NC(=O)[C@@H](Cc2ccccc2)NC(=O)[C@@H]2C[C@@H](O)CN2C1=O [Example 4] ({Palmitoyl(16-(5-tetrazolyl))-AEEA}-GSQS[Dap](NTA)[Nle]E[Hyp][dF]RWK-NH2; lactam 7-12) with human MC4 receptor (Homo sapiens, UniProt P32245).
Result: 5.67

Q: Write down the reported Ki of CCCC[C@H](NC(=O)[C@H](CCCCN(CC(=O)O)CC(=O)O)NC(=O)[C@H](CO)NC(=O)[C@H](CCC(N)=O)NC(=O)[C@H](CO)NC(=O)CNC(=O)COCCOCCNC(=O)CCCCCCCCCCCCCCCc1nnn[nH]1)C(=O)N[C@H]1CCC(=O)NCCCC[C@@H](C(N)=O)NC(=O)[C@H](Cc2c[nH]c3ccccc23)NC(=O)[C@H](CCCNC(=N)N)NC(=O)[C@@H](Cc2ccccc2)NC(=O)[C@@H]2C[C@@H](O)CN2C1=O [Example 5] ({Palmitoyl(16-(5-tetrazolyl))-AEEA}-GSQS[Lys(CH2CO2H)2][Nle]E[Hyp][dF]RWK-NH2; lactam 7-12) , test system: human MC4 receptor (Homo sapiens, UniProt P32245).
Result: 7.55

Q: Form field: Ki recorded for CCCC[C@H](NC(=O)[C@H](CN(CC(=O)O)CC(=O)O)NC(=O)[C@H](Cc1c[nH]cn1)NC(=O)[C@H](CCC(N)=O)NC(=O)[C@H](CO)NC(=O)CNC(=O)COCCOCCNC(=O)CCCCCCCCCCCCCCCc1nnn[nH]1)C(=O)N[C@H]1CCC(=O)NCCCC[C@@H](C(N)=O)NC(=O)[C@H](Cc2c[nH]c3ccccc23)NC(=O)[C@H](CCCNC(=N)N)NC(=O)[C@@H](Cc2ccccc2)NC(=O)[C@@H]2C[C@@H](O)CN2C1=O [Example 6] ({Palmitoyl(16-(5-tetrazolyl))-AEEA}-GSQH[X1][Nle]E[Hyp][dF]RWK-NH2; lactam 7-12) with human MC4 receptor (Homo sapiens, UniProt P32245) (enter value)
Result: 2.9
